Every entry's value here was drawn from patent US20150093336A1.

Kd reference
Biological target: T1, Recombinant human MMR (R&D systems) (human, UniProt P22897 19-1383)
T1 construct: Antigen of the PE-ELISA and the SPR; also called hMMR; recombinant hMMR
T1 sequence: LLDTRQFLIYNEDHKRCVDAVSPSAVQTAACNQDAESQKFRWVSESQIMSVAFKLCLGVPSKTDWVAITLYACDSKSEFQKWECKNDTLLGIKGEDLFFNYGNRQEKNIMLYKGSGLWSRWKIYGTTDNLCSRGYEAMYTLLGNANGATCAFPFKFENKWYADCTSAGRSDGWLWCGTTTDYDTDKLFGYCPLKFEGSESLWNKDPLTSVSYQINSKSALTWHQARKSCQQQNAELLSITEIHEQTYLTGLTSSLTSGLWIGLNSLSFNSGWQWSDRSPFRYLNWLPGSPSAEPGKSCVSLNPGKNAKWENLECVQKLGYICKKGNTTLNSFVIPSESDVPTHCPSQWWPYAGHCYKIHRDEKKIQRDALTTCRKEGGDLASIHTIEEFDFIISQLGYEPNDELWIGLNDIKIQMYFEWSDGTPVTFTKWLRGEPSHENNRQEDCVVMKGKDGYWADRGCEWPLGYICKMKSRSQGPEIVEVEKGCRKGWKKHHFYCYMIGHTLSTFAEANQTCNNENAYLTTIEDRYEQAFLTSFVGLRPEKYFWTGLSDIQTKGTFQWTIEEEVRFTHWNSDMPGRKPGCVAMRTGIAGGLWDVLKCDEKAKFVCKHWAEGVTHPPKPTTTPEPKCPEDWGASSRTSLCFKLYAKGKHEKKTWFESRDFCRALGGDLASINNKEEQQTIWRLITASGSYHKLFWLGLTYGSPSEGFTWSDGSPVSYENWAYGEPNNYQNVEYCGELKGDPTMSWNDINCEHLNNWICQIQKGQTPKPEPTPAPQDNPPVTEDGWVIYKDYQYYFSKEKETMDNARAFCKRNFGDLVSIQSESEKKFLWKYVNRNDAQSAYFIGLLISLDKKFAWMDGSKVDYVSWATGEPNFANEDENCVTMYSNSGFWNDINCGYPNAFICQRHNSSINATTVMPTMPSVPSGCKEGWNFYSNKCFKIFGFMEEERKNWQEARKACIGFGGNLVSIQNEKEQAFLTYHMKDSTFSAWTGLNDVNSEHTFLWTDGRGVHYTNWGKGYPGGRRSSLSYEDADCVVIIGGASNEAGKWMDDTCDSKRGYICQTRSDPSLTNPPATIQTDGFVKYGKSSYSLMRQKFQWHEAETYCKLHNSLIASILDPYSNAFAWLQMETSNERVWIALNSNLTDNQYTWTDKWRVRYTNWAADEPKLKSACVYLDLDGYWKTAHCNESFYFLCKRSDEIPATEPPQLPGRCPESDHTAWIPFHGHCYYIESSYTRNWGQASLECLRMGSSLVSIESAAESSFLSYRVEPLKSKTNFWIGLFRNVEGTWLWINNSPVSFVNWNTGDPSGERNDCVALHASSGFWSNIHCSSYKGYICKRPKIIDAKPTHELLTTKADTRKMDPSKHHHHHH
Test: SPR, BIAcore T100; human MMR on CM5 chip, sdAb as analyte
Report the figure in nM without appending any unit label.

Worked cases, Kd given:
[[record]]
binder = "NbhMMRm12.6 (VHH, Produced from pMECS with C-terminal HA and 6xHis tag) VHH: QVQLQESGGGLVQPGGSLRLSCVVSGSFLSINHMGWYRQVSGEQRELVAAITSGGSTNYADSVKGRFTISRDSAKNTVYLQMNSLKPEDTAVYYCNADALTMLPPFDFWGQGTQVTVSS"
parameter_measured = "Kd"
unit_string = "nM"
observed_measurement = 8.2

[[record]]
binder = "NbhmMMRm20.52 (VHH, Produced from pMECS with C-terminal HA and 6xHis tag) VHH: QVQLQESGGGLVQAGGSLRLSCAASGRIFSAYAMGWFRQAPGKEREFVAAISRSGDSTDYADSVKGRFTISRDSAKNMVYLQMNSLKPEDTALYHCAARTVSAPPSAAWGYGYWGQGTQVTVSS"
parameter_measured = "Kd"
unit_string = "nM"
observed_measurement = 260

[[record]]
binder = "NbhmMMRm22.84 (VHH, Produced from pMECS with C-terminal HA and 6xHis tag) VHH: QVQLQESGGGLVQPGGSLRLSCAASGRTFSNYVNYAMGWFRQFPGKEREFVASISWSSVTTYYADSVKGRFTISRDNAKNTVYLQMNSLKPEDTAVYYCAAHLAQYSDYAYRDPHQFGAWGQGTQVTVSS"
parameter_measured = "Kd"
unit_string = "nM"
observed_measurement = 38


q: What value of Kd has been recorded for this entry: NbhmMMRm21.22 (VHH, Produced from pMECS with C-terminal HA and 6xHis tag; also called NbhMMRm21.22) VHH: QVQLQESGGGLVQAGGSLRLSCAASGRTFSSAAMGWFRQAPGKEREPVALINLDDGETYYADIAKGRFTLSKDNAKNSVYLQMNSLKPEDTAVYYCAVRGRFDDNYEYWGQGTQVTVSS
a: 3.6
